- system tested: RBPJ (53–474) Q333A (Mus musculus, UniProt P31266 53-474, Q333A)
- Sequence (P31266 53-474 Q333A): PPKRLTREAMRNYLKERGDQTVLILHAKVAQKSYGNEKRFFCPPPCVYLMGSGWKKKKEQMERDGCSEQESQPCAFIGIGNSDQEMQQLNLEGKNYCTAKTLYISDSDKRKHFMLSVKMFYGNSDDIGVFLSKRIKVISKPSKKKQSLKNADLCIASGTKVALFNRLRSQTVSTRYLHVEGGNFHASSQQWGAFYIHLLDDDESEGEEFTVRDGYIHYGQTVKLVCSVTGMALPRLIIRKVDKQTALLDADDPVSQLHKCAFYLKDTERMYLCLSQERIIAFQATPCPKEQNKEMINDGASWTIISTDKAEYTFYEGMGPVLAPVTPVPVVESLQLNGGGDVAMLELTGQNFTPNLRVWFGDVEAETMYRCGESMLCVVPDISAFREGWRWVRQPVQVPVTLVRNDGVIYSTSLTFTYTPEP
- measurement description: ITC
observation type: pKd
Note on units: pKd is unitless, being -log10 of a concentration expressed in mol/L.

Task item: Recorded pKd of MENVKKATATTTWMVPTAQ (peptide, UniProt Q96JM7-2 52-70, looked up) [L3MBTL3 (52–70) wild-type peptide (19-mer)] , please.
Reply: 5.89
